Reference source for all entries: the supplement of paper PMC7877785

- methodSummary: self-splicing fitness, log relative to wild type (ln ratio); higher = more splicing; Tetrahymena group I intron in knt gene, E. coli kanamycin selection, DiMSum; sequences stand for … in CUCUCU…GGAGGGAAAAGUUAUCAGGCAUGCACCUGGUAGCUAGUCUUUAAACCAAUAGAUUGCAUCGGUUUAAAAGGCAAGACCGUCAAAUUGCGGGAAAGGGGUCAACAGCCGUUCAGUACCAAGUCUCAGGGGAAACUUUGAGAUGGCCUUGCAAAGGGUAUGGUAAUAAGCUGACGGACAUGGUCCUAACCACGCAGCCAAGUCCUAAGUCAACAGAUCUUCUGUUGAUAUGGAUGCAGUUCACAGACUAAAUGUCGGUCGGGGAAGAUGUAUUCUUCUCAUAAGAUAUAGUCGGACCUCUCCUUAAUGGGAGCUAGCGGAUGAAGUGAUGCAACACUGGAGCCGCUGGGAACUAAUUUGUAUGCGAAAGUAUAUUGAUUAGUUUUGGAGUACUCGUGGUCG;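 note: selection with 25 µg/mL kanamycin versus none on LB agar overnight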
- conditionContext: 30 °C
Each entry belongs to exactly one class, chosen by where its self-splicing fitness (ln) falls: low interval = under -3, middle interval = from -3 up to -2, high interval = -2 and over

sequenceRecord	categoryLabel
GGAUAGCAAUAUUACGCGCG	high interval
AGAGAGCAAUAUUACGAUAU	middle interval
AAGAAGCAAUAUUACGGACA	high interval
GAUCAGCAAUAUUACGACCA	high interval
UGGGAGCAAUAUUACGAAAA	middle interval
CUGGAGCAAUAUUACGGGCA	high interval
ACUAAGCAAUAUUACGGCAC	high interval
ACAAAGCAAUAUUACGUCCG	high interval
GUCUAGCAAUAUUACGAGCA	high interval
GGAGAGCAAUAUUACGAAUU	low interval
AGCUAGCAAUAUUACGGGAA	low interval
CGCCAGCAAUAUUACGCAGA	low interval
GGCGAGCAAUAUUACGCUGC	middle interval
GGGAAGCAAUAUUACGCACU	high interval
GAGUAGCAAUAUUACGGGGC	middle interval
GCUCAGCAAUAUUACGCAGA	low interval
UCACAGCAAUAUUACGUCCC	low interval
CCGCAGCAAUAUUACGGCUC	low interval
ACACAGCAAUAUUACGAGCU	high interval
UGUAAGCAAUAUUACGUACU	high interval
AGCCAGCAAUAUUACGUGUA	low interval
CGAAAGCAAUAUUACGGUUC	low interval
AAGCAGCAAUAUUACGGAUG	low interval
UUAUAGCAAUAUUACGCAUU	low interval
GUUCAGCAAUAUUACGCACG	high interval
AAGCAGCAAUAUUACGUAUG	low interval
UAGCAGCAAUAUUACGUCAU	low interval
GCAAAGCAAUAUUACGUUGC	low interval
GUGUAGCAAUAUUACGGGGU	low interval
AGCGAGCAAUAUUACGCGAA	middle interval
CUACAGCAAUAUUACGCGAC	high interval
AUCUAGCAAUAUUACGGGAC	middle interval
CUCAAGCAAUAUUACGGUUG	low interval
AGUUAGCAAUAUUACGGCCU	high interval

---

- methodSummary: self-splicing fitness, log relative to wild type (ln ratio); higher = more splicing; Tetrahymena group I intron in knt gene, E. coli kanamycin selection, DiMSum; sequences stand for … in CUCUCU…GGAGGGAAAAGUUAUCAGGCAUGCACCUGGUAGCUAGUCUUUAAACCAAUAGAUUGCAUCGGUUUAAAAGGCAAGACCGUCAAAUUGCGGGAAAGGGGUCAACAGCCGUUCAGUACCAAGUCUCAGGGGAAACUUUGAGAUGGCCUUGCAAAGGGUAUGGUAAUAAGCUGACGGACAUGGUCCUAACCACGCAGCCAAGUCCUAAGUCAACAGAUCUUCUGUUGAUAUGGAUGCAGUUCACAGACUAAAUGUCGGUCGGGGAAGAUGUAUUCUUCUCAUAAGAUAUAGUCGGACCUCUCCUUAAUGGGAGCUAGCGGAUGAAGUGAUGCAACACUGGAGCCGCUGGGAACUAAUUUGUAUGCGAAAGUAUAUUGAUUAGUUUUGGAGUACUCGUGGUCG
- conditionContext: 30 °C
Decide by self-splicing fitness (ln): equal to or exceeding -3 means criterion met, less means criterion not met.

sequenceRecord	categoryLabel
GUUGAGCAAUAUUACGCUGA	criterion not met
GUAUAGCAAUAUUACGUGGU	criterion not met
CUACAGCAAUAUUACGGGAG	criterion met
UUAGAGCAAUAUUACGCUCG	criterion met
CAUAAGCAAUAUUACGGUCG	criterion met
GAGAAGCAAUAUUACGGAUU	criterion met
GUAUAGCAAUAUUACGAAAG	criterion not met
ACCUAGCAAUAUUACGAGUU	criterion met
GCUUAGCAAUAUUACGAAUA	criterion met
CGUUAGCAAUAUUACGCUCU	criterion met
GGGUAGCAAUAUUACGAUGA	criterion met
AUGUAGCAAUAUUACGGGUA	criterion met
AAUGAGCAAUAUUACGCUUA	criterion met
UGCUAGCAAUAUUACGACUA	criterion met
CCAGAGCAAUAUUACGGGUA	criterion met
AUCCAGCAAUAUUACGGCUA	criterion met
UACCAGCAAUAUUACGCGAA	criterion met
UAGCAGCAAUAUUACGUGUU	criterion not met
UUCUAGCAAUAUUACGACUC	criterion not met
CGACAGCAAUAUUACGAGAC	criterion not met
CAACAGCAAUAUUACGAACA	criterion met
AUCGAGCAAUAUUACGGCUA	criterion met
ACGGAGCAAUAUUACGGGUA	criterion met
UCGAAGCAAUAUUACGUCAG	criterion met
AGCAAGCAAUAUUACGUAAU	criterion met
GAAGAGCAAUAUUACGCCUG	criterion met
UCGGAGCAAUAUUACGCGGU	criterion not met
GUAUAGCAAUAUUACGCGUC	criterion met
CCUUAGCAAUAUUACGAAGC	criterion not met
GACAAGCAAUAUUACGUCUG	criterion not met
UACUAGCAAUAUUACGUGCU	criterion not met
GUAUAGCAAUAUUACGUGUU	criterion not met
CGUAAGCAAUAUUACGUGUG	criterion met
AACGAGCAAUAUUACGCAGA	criterion not met
UAUAAGCAAUAUUACGAUGC	criterion not met
GUACAGCAAUAUUACGACUA	criterion met
CAUCAGCAAUAUUACGGCGU	criterion met
CGACAGCAAUAUUACGGUAC	criterion not met
CUGUAGCAAUAUUACGGUUU	criterion not met
GAACAGCAAUAUUACGAUUG	criterion met
UACAAGCAAUAUUACGUGGG	criterion not met
AGUUAGCAAUAUUACGGCAC	criterion met
UCCGAGCAAUAUUACGGAUA	criterion met
GGAAAGCAAUAUUACGAAUA	criterion met
AAGCAGCAAUAUUACGAGCG	criterion met
UGCAAGCAAUAUUACGGGGC	criterion not met
CAGAAGCAAUAUUACGAUGC	criterion not met
AGACAGCAAUAUUACGCGGU	criterion not met
ACCCAGCAAUAUUACGUCAU	criterion met
GCUGAGCAAUAUUACGCAUC	criterion met
AAACAGCAAUAUUACGCAAA	criterion met
GACAAGCAAUAUUACGAUCC	criterion met
CGCCAGCAAUAUUACGCUCU	criterion met
AGUCAGCAAUAUUACGGAUU	criterion met
UAGAAGCAAUAUUACGCGUU	criterion met
GUCCAGCAAUAUUACGGUUC	criterion met
CUGUAGCAAUAUUACGCAGG	criterion not met
GACAAGCAAUAUUACGACAG	criterion not met
GGUCAGCAAUAUUACGUCGC	criterion met
GCCCAGCAAUAUUACGCAAC	criterion met
CAUUAGCAAUAUUACGGAAA	criterion not met
UGUCAGCAAUAUUACGUUAU	criterion not met
UCCAAGCAAUAUUACGAUUU	criterion not met
UUCUAGCAAUAUUACGACGU	criterion met
AGAGAGCAAUAUUACGGAGU	criterion not met
